target-or-system: cloned hTRPM8 channel (encoded by the human TRPM8 gene, expressed in CHO cells) (Homo sapiens, UniProt Q7Z2W7)
Construct: host or cells: CHO cells, stably transfected
Sequence (Q7Z2W7 whole entry): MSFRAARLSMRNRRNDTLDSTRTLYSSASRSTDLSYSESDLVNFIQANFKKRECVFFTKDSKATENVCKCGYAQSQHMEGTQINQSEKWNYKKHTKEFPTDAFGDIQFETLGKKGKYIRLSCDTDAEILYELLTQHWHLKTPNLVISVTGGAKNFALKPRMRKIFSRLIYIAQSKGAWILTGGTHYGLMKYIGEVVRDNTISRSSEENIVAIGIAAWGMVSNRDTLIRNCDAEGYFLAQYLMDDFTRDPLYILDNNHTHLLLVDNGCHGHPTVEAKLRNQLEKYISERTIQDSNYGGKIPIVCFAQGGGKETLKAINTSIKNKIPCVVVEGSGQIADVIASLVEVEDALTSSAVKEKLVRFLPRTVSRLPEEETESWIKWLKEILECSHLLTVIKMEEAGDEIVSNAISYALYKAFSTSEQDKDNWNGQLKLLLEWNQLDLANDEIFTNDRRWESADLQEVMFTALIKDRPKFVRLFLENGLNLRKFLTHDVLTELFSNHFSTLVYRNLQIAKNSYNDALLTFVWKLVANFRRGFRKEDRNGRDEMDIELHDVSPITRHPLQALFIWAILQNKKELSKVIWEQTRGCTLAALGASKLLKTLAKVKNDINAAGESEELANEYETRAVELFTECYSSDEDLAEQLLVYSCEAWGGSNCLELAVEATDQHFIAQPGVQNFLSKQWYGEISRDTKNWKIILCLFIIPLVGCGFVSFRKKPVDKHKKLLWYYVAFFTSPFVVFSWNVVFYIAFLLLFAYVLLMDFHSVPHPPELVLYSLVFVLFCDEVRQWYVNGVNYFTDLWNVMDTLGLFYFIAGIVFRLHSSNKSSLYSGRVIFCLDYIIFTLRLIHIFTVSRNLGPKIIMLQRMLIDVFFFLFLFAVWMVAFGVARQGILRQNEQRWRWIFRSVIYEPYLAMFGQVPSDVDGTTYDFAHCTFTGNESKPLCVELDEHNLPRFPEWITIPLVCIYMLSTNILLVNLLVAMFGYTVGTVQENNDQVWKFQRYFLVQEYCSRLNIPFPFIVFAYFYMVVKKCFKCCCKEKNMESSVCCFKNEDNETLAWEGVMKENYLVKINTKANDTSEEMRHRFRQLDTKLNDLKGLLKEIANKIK
experiment-description: TRPM8 agonist FLIPR Fluo-8 calcium assay
Format: cell-based
recorded-conditions: CHO cells, Fluo-8, n=4 replicates
value-kind: pEC50
The quantity pEC50 is defined as the negative base-10 logarithm of the molar concentration.

Quick one: pEC50 of CCCCCP(=O)(CC(C)C)CC(C)C ?
4.62

Quick one: pEC50 of CCC(C)P(=O)(CCC(C)C)C(C)CC (centres unmarked) ?
5.38

----------
System: 0.1 N HCl-induced swallowing, pharyngolaryngeal region
experiment-description: Acid-induced swallowing movements in the anesthetized rat
Format: in vivo
recorded-conditions: DAPA-2-5 = 1.0
value-kind: Relative Potency (suppression of swallowing)

CCCCCCCCP(=O)(C(C)CC)C(C)CC (centres unmarked) [DAPA-2-8, 1-Di(sec-butyl) phosphinoyl-octane] | 0.16
CCCCCCCP(=O)(C(C)C)C(C)C | 0.11
CCCCCCCP(=O)(C(C)CC)C(C)CC (centres unmarked) [DAPA-2-7, 1-Di(sec-butyl) phosphinoyl-heptane] | 0.45
CCCCCCP(=O)(C(C)CC)C(C)CC (centres unmarked) [DAPA-2-6, 1-Di(sec-butyl) phosphinoyl-hexane] | 0.05

Note: attention shifts to another entry.
Quick one: Relative Potency (suppression of swallowing) of CCCCCP(=O)(C(C)CC)C(C)CC (centres unmarked) [DAPA-2-5, 1-Di(sec-butyl)-phosphinoyl-pentane] ?
1.0

----------
Test system: throat
experiment-description: Cold water test after ODT-A (cold discomfort)
Assay type: in vivo, human
Set-up: key: If the subject felt “normal coolness” in the throat, the value was “0”; if the water felt “excessively cold” on the throat, it was rated as “+”; if there was “aching cold/discomfort” on the throat, the ranking was “++”
recorded-conditions: ODT-A on the tongue, ice water drunk 10 min later
value-kind: Cold Discomfort
I only need the number, thanks.

CCCCCP(=O)(C(C)C)C(C)C [DAPA-1-5, 1-Di(isopropyl)-phosphinoyl-pentane] | 0
CCCCCP(=O)(C(C)CC)C(C)CC (stereo not shown) [DAPA-2-5, 1-Di(sec-butyl)-phosphinoyl-pentane] | 0

Note: attention shifts to another entry.
Quick one: Cold Discomfort of CCCCP(=O)(C(C)CC)C(C)CC (stereo not shown) [DAPA-2-4, 1-Di(sec-butyl) phosphinoyl-butane] ?
0

----------
Test system: oral cavity and pharyngeal surfaces
experiment-description: Sensory activity of ODT-A on volunteers
Type: in vivo, human
recorded-conditions: 6 to 8 trials per compound
Duration strictly under 20 min means Yes; at 20 min or over means No.

Example cases with answers are listed next.
CCCCCCCP(=O)(C(C)CC)C(C)CC (centres unmarked) [DAPA-2-7, 1-Di(sec-butyl) phosphinoyl-heptane] | No
CCC(C)P(=O)(CCC(C)C)C(C)CC (centres unmarked) | Yes
CCCCCCCCP(=O)(C(C)C)C(C)C | No
CCCCCCCP(=O)(C(C)C)C(C)C | Yes
CCCCCP(=O)(CC(C)C)CC(C)C | Yes
CCCCCP(=O)(C(C)C)C(C)C | Yes
CCCCCCP(=O)(C(C)C)C(C)C | Yes

In the following, a different molecule is considered.
# TODO verify Duration < 20 min strictly for this molecule: CCCCCCCCP(=O)(C(C)CC)C(C)CC (centres unmarked) [DAPA-2-8, 1-Di(sec-butyl) phosphinoyl-octane]
No

----------
Tested on: throat
experiment-description: Cold water test after ODT-A (cold discomfort)
Type: in vivo, human
Set-up: key: If the subject felt “normal coolness” in the throat, the value was “0”; if the water felt “excessively cold” on the throat, it was rated as “+”; if there was “aching cold/discomfort” on the throat, the ranking was “++”
recorded-conditions: ODT-A on the tongue, ice water drunk 10 min later
value-kind: Cold Discomfort

CCCCCCCCP(=O)(C(C)C)C(C)C | +
CCCCCCP(=O)(C(C)CC)C(C)CC (stereo not shown) [DAPA-2-6, 1-Di(sec-butyl) phosphinoyl-hexane] | ++
CCCCCCCP(=O)(C(C)CC)C(C)CC (stereo not shown) [DAPA-2-7, 1-Di(sec-butyl) phosphinoyl-heptane] | ++
CCCCCCCP(=O)(C(C)C)C(C)C | +
